Kindly find below IC50 information for Coagulation factor X (Homo sapiens, UniProt P00742) taken from the literature.

structure as smiles: COc1ccc2c(c1)C(=O)N(c1ccc(N3CCCCC3=O)cc1)CN2C(=O)c1ccc(Cl)s1
target: Coagulation factor X (Homo sapiens, UniProt P00742)
measurement unit: µM
limit operator: =
IC50: 179
--
structure as smiles: CCCCNC(=O)c1ccn2c(NCc3ccc(NC(=N)N)cc3)cnc2c1
target: Coagulation factor X (Homo sapiens, UniProt P00742)
measurement unit: µM
limit operator: >
IC50: 100
--
structure as smiles: CCOC(=O)[C@]1(C)CCC[C@@]2(C)[C@@H]3CC[C@@]4(C)C[C@]3(CC[C@@H]21)C[C@H]4OCc1cn(-c2ccc(Cl)cc2)nn1
target: Coagulation factor X (Homo sapiens, UniProt P00742)
measurement unit: µM
limit operator: =
IC50: 27.3
--
structure as smiles: CC(C)C[C@@H](NC(=O)c1ccc(Cl)s1)C(=O)Nc1ccc(N2CCOCC2=O)cc1
target: Coagulation factor X (Homo sapiens, UniProt P00742)
measurement unit: µM
limit operator: =
IC50: 0.015
